// data source = patent US5405866A

# IC50 per record follows
# Tested on: KB-8-5 cells
# Assay method text: cytotoxicity (IC50) of the test substance, MTT/formazan color reaction
# Assay type: cell-based
# Condition notes: Homo sapiens, 120 h; read-out: IC50
All answers are understood in µM, so give the number only.

COc1ccc(CCN(C)CC(C)CC2(c3ccc(C)cc3)SCCCS2)cc1OC.Cl (racemic) [B, hydrochloride] = 14
COc1ccc(C2(CC(C)CN(C)CCc3ccc(Cl)cc3)SCCCS2)cc1OC.Cl (racemic) [E, hydrochloride] = 7.7
COc1ccc(CCN(C)CC(C)CC2(c3ccc(Cl)cc3)SCCCS2)cc1OC.Cl (racemic) [A, hydrochloride] = 14

Exam item: // returns reported IC50 for input COc1ccc(C2(CN(C)CC(C)CC3(c4ccc(OC)c(OC)c4)SCCCS3)CCC2)cc1OC.Cl (racemic) [D, hydrochloride]
Marked response: 21

Exam item: Continue with COc1ccc(C2(CN(C)CC(C)CC3(c4cc(OC)c(OC)c(OC)c4)SCCCS3)CCC2)cc1OC.Cl (racemic) [C, hydrochloride]
Marked response: 21

---

Here, each record is paired with measured LD50 data.
# Assay method text: in vivo
# Condition notes: po, mouse, preliminary, read-out: Toxicity (LD50)

COc1ccc(CCN(C)CC(C)CC2(c3ccc(C)cc3)SCCCS2)cc1OC.Cl (racemic) [B] = 625 to 1250 mg/kg
COc1ccc(C2(CC(C)CN(C)CCc3ccc(Cl)cc3)SCCCS2)cc1OC.Cl (racemic) [E] = 2500 to 5000 mg/kg
COc1ccc(C2(CN(C)CC(C)CC3(c4cc(OC)c(OC)c(OC)c4)SCCCS3)CCC2)cc1OC.Cl (racemic) [C] = 1000 to 2000 mg/kg
COc1ccc(C2(CN(C)CC(C)CC3(c4ccc(OC)c(OC)c4)SCCCS3)CCC2)cc1OC.Cl (racemic) [D] = 1000 to 2000 mg/kg

Continue with the next compound.
Exam item: Fill in: LD50 of COc1ccc(CCN(C)CC(C)CC2(c3ccc(Cl)cc3)SCCCS2)cc1OC.Cl (racemic) [A] is ___
Marked response: 1250 to 2500 mg/kg

---

Measured IC50, listed per entry.
# Tested on: KB-8-5 cells
# Assay method text: cytotoxicity (IC50) of the test substance, MTT/formazan color reaction
# Type: cell-based
# Condition notes: Homo sapiens, 120 h
# Procedure: KB-8-5 cells, a human cell line with multiple resistance to cytostatics, and KB-3-1 cells, a correspondingly sensitive cell line [Cell. Mol. Genet. […] The biological test is based on the ability of the test substance to lower the concentration of a standard cytostatic which is required to kill 50% of the cells. […] After incubating for 5 days the cell count was measured at 540 nm using the formazan color reaction. […]
Give the value, in units of µM, as a plain number.

COc1ccc(CCN(C)CCC[C@](C#N)(c2ccc(OC)c(OC)c2)C(C)C)cc1OC [(+)Verapamil, reference compound] = 62

Now take the following compound into account.
Exam item: Which IC50 reading was recorded for the compound COc1ccc(CCN(C)CCC[C@@](C#N)(c2ccc(OC)c(OC)c2)C(C)C)cc1OC [(-)Verapamil, reference compound] ?
Marked response: 72
